TGI values for the molecules below.
# Tested on: U251 CNS
# Method Description: NCI tumour cell line growth inhibition, 48 h
Readout Name: TGI

INSERT INTO results (molecule, target_under_test, val) VALUES
  ('[C-]#[N+]C(C)(C)C[C@H]1CC(C)C2CCC(C)C3([N+]#[C-])CCC(=C)C1[C@H]23 (some centres not stated)', 'U251 CNS', '11.8 µM'),
  ('O=[N+]([O-])/C=C/COCc1cc2c(cc1Br)OCO2', 'U251 CNS', '30.7 µM'),
  ('COc1cc(/C=C2\CC3C4CC[C@H]5C[C@@H](O)CC[C@]5(C)C4CC[C@]3(C)C2=O)cc(OC)c1OC (some centres not stated)', 'U251 CNS', '41.5 µM'),
  ('OC(C/C(=N\N=C(/CC(O)(C(F)(F)F)C(F)(F)F)c1ccccc1)c1ccccc1)(C(F)(F)F)C(F)(F)F', 'U251 CNS', '> 10 µM'),
  ('COc1cc2cccc(NC(=O)c3cc(OC)c(OC)c(OC)c3Br)c2cc1OC', 'U251 CNS', '78.9 µM'),
  ('CCOC(=O)NC(=O)c1cn(CCN2CCN(C(=O)NCCCCCCNC(=O)N3CCN(CCn4cc(C(=O)NC(=O)OCC)c(=O)n(CCN(CC)CC)c4=O)CC3)CC2)c(=O)n(CCC(CC)CC)c1=O', 'U251 CNS', '> 100 µM'),
  ('C=C(CNCCc1ccc(O)cc1)[C@@H]1CC[C@]2(COC3CCCCO3)CC[C@]3(C)[C@H](CC[C@@H]4[C@@]5(C)CCC(N)C(C)(C)[C@@H]5CC[C@]43C)[C@@H]12 (some centres not stated)', 'U251 CNS', '> 100 µM');

====

# Tested on: TK-10 renal
# Method Description: NCI tumour cell line growth inhibition, 48 h
Readout Name: GI50

INSERT INTO assay_data (compound, val) VALUES
  ('C=CC(=O)Nc1cccc(C)c1Nc1ncc2cc(-c3c(Cl)c(OC)cc(OC)c3Cl)ccc2n1', '3.25 µM'),
  ('O=C1/C(=C/c2ccc(Cl)cc2)COc2ccc(O)c(O)c21', '1.71 µM'),
  ('CCCN(CCC)C(=O)[C@H](CC)[C@@H]1CC[C@@H](C)[C@@H]([C@H](C)[C@@H](O)[C@@H](C)C(=O)[C@H](CC)C2O[C@]3(C=C[C@@H](O)[C@]4(CC[C@@](C)([C@H]5CC[C@](O)(CC)[C@H](C)O5)O4)O3)[C@H](C)C[C@@H]2C)O1 (some centres undefined)', '3.3 µM'),
  ('CC(C)C[C@@H]1NC(=O)[C@@H]2CCCN2C(=O)[C@@H]2CCCN2C(=O)[C@H](CC(C)C)NC(=O)[C@H](CO)NC(=O)[C@H](CCCCN)NC(=O)[C@H]([C@H](C)O)NC(=O)[C@@H]2CCCC[C@@H](NC1=O)C(=O)N[C@@H](Cc1ccccc1)C(=O)N1CCC[C@H]1C(=O)N[C@@H](CC(=O)O)C(=O)NCC(=O)N[C@@H](CCCN=C(N)N)C(=O)N2', '> 50 µM');

====

TGI values for the molecules below.
# Tested on: DLD-1 colon
# Method Description: NCI tumour cell line growth inhibition, 48 h
Readout Name: TGI

INSERT INTO measurements (molecule, val) VALUES
  ('CC1=NN(C(=O)c2ccc(Cl)cc2)C(=O)/C1=C/c1ccc(O)cc1', '> 100 µM'),
  ('C=CCCCCCC(O)C(O)C/C=C\C/C=C\CC (stereo not drawn)', '> 18.8 µM'),
  ('[C-]#[N+]C(C)(C)C[C@H]1CC(C)C2CCC(C)C3([N+]#[C-])CCC(=C)C1[C@H]23 (stereo partly drawn)', '9.29 µM'),
  ('CC(C)(c1ccc(OC#N)cc1)c1ccc(OC#N)cc1', '> 100 µM'),
  ('C=CCN=C1NC(=O)C(CC(=O)Nc2ccc(C)cc2)S1 (stereo not drawn)', '> 100 µM'),
  ('CCN(CC)c1cccc2c1C1(O)CCC3(CC21)OCCCCO3 (stereo not drawn)', '> 100 µM'),
  ('COc1cc2cccc(NC(=O)c3cc(OC)c(OC)c(OC)c3Br)c2cc1OC', '> 100 µM'),
  ('O=C1c2c(nc3ccccc3c2-c2ccccc2)CN1Nc1ccccc1', '> 100 µM');

====

# Tested on: NCI/ADR-RES ovarian
# Method Description: NCI tumour cell line growth inhibition, 48 h
Decision: TGI compared against 40 µM; not below it gives 1 (yes), below it gives 0 (no).

INSERT INTO assay_data (molecule, class_assignment) VALUES
  ('CC1=C(C(=O)Nc2ccc(F)c(Cl)c2)C(c2cccc(Oc3ccccc3)c2)NC(=O)N1 (stereo not given)', '0 (no)'),
  ('COc1cc(-c2oc3c(OC)c(O)c(OC)c(O)c3c(=O)c2OC)ccc1O', '1 (yes)'),
  ('O=C1/C(=C/c2ccc(Cl)cc2)COc2ccc(O)c(O)c21', '0 (no)'),
  ('C/C1=C\CC/C(C)=C/C=C(/C(C)C)CC/C(C(=O)O)=C/CC1', '1 (yes)'),
  ('COC(=O)c1cc2oc(/C=C3\SC(=S)N(NC(C)=O)C3=O)cc2n1Cc1ccccc1', '0 (no)'),
  ('COc1ccc2nc3ccc(OC)cc3c(SCC3CO3)c2c1 (stereo not given)', '0 (no)'),
  ('C[C@@H]1C[C@@]2(O[C@@H]2C)C(=O)O[C@@H]2CCN3CC=C(COC(=O)[C@]1(C)O)[C@H]23', '1 (yes)'),
  ('CC(=O)N1N=C(c2c(O)ccc3ccccc23)CC1c1ccc(Cl)cc1 (stereo not given)', '1 (yes)'),
  ('Cc1ccc(CCCCCOc2ccc(C3=NCCO3)cc2)s1', '1 (yes)');

====

# Tested on: 786-0 renal
# Method Description: NCI tumour cell line growth inhibition, 48 h
Readout Name: TGI

INSERT INTO assay_data (molecule, target_under_test, val) VALUES
  ('CC1SC(=O)SC1C (stereo not drawn)', '786-0 renal', '> 100 µM'),
  ('COc1ccc2c(c1)CCCN1Cc3ccccc3CC21 (stereo not drawn)', '786-0 renal', '> 100 µM'),
  ('CCCCCCCCCCCC[n+]1ccc(C(N)=O)cc1', '786-0 renal', '12.7 µM'),
  ('C[CH2][Sn]([CH2]C)([O]C(=O)c1cccc(F)c1)[O][Sn]([CH2]C)([CH2]C)[O]C(=O)c1cccc(F)c1', '786-0 renal', '29.3 µM'),
  ('COc1cc(/C=C2/C(=O)NC(Cc3cc(OC)c(OC)c(C)c3OC)C(=O)N2Cc2ccccc2)c(OC)c(C)c1OC (stereo not drawn)', '786-0 renal', '> 100 µM'),
  ('CC1=Nn2c(nnc2-c2ccc(N)cc2)NC(C)(C)C1', '786-0 renal', '> 100 µM'),
  ('O=C1/C(=C/c2ccc(Cl)cc2)COc2ccc(O)c(O)c21', '786-0 renal', '5.17 µM'),
  ('CC1/C(=N/Nc2ccc([N+](=O)[O-])cc2)CC2C3(C)CCC2(C(C)C(=O)O)C(=O)C13 (stereo not drawn)', '786-0 renal', '> 100 µM'),
  ('CSC(=S)OC1C(CO[Si](C)(C)C(C)(C)C)OC2OC(C)(C)OC21 (stereo not drawn)', '786-0 renal', '42 µM'),
  ('Cc1cccc2c1C/C(=C1\CCc3c(C)cccc31)C2=O', '786-0 renal', '> 100 µM'),
  ('CC(C)(c1ccc(OC#N)cc1)c1ccc(OC#N)cc1', '786-0 renal', '> 100 µM'),
  ('C[CH2][Sn]([Cl])([Cl])[CH2]C', '786-0 renal', '> 56 µM'),
  ('Cc1ccc(N2C(=O)/C(=C/c3ccc(N(CCC#N)CCC#N)cc3C)N=C2c2cc([N+](=O)[O-])ccc2Cl)cc1', '786-0 renal', '> 100 µM');

====

# System: HOP-62 NSCLC
# Method Description: NCI tumour cell line growth inhibition, 48 h
Readout Name: TGI (µM)

INSERT INTO assay_data (compound, readout_name, censoring_qualifier, val) VALUES
  ('COc1ccc2c(c1)OC(N)=C(C#N)C2c1ccc(F)cc1 (centres undefined)', 'TGI', '>', 100),
  ('O=C(Cc1ccccc1)NNc1nc(NNC(=O)c2ccncc2)nc(Nc2ccc(Cl)cc2)n1', 'TGI', '>', 10),
  ('O=C1NC(=NC2CCCCC2)C2(CCN(CCCC3(c4ccc(F)cc4)OCCO3)CC2)N1c1ccccc1', 'TGI', '=', 31.8),
  ('COc1cc(/C=C2/C(=O)NC(Cc3cc(OC)c(OC)c(C)c3OC)C(=O)N2Cc2ccccc2)c(OC)c(C)c1OC (centres undefined)', 'TGI', '>', 100),
  ('Nc1ccccc1OCc1cc(=O)c(OCc2ccccc2)co1', 'TGI', '>', 100),
  ('COC(=O)C(CC(=O)Nc1ccc(Cl)c(Cl)c1)C(=O)C(=O)NC1C2CC3CC(C2)CC1C3 (centres undefined)', 'TGI', '>', 100),
  ('O=C1C(=O)c2ccccc2C(O)=C1CCCCCCCCC1CCCCC1', 'TGI', '=', 36.7),
  ('COc1cc2cccc(NC(=O)c3cc(OC)c(OC)c(OC)c3Br)c2cc1OC', 'TGI', '=', 42.3),
  ('[C-]#[N+]C(C)(C)C[C@H]1CC(C)C2CCC(C)C3([N+]#[C-])CCC(=C)C1[C@H]23 (some centres undefined)', 'TGI', '=', 19.3);
